The origin of these recorded values is ChEMBL document CHEMBL3612037.

- Tested on: Staphylococcus
- methodSummary: Antimicrobial activity against Staphylococcus citreus at 20 uL of 1 mg/ml by disc diffusion assay
- Type: functional
- recordedConditions: read-out: IZ
zone of inhibition at 1000 µg/mL by entry:
The answer consists of two parts: a number and, after it, its unit.

Cc1ccc(C2=NN(c3ccc([N+](=O)[O-])cc3)C(c3cn(-c4ccccc4)nc3-c3ccc(Cl)c(Cl)c3)C2)cc1 (centres undefined) | 16 mm

Input: # query: zone of inhibition at 1000 µg/mL | item O=[N+]([O-])c1ccc(N2N=C(c3ccc(Cl)cc3)CC2c2cn(-c3ccccc3)nc2-c2ccc(Cl)c(Cl)c2)cc1 (centres undefined) | system: Staphylococcus
Output: 18 mm

Input: Input Cc1ccc(C2=NN(C=O)C(c3cn(-c4ccccc4)nc3-c3ccc(Cl)c(Cl)c3)C2)cc1 (centres undefined)
Output: 16 mm

Input: Please answer likewise for Clc1ccc(C2=NNC(c3cn(-c4ccccc4)nc3-c3ccc(Cl)c(Cl)c3)C2)cc1 (centres undefined)
Output: 18 mm

====

- Tested on: Aeromonas hydrophila
- methodSummary: Antimicrobial activity against Aeromonas hydrophila at 20 uL of 1 mg/ml by disc diffusion assay
- Assay type: functional
- recordedConditions: read-out: IZ
Measured zone of inhibition at 1000 µg/mL accompanies every entry in the list below.
Form field: result (number plus unit)

Solved entries (count: 7):
Cc1ccc(C2=NNC(c3cn(-c4ccccc4)nc3-c3ccc(Cl)c(Cl)c3)C2)cc1 (stereo not drawn) | 11 mm
Cc1ccc(C2=NN(c3ccc([N+](=O)[O-])cc3)C(c3cn(-c4ccccc4)nc3-c3ccc(Cl)c(Cl)c3)C2)cc1 (stereo not drawn) | 19 mm
O=CN1N=C(c2ccc(F)cc2)CC1c1cn(-c2ccccc2)nc1-c1ccc(Cl)c(Cl)c1 (stereo not drawn) | 10 mm
O=[N+]([O-])c1ccc(N2N=C(c3ccc(Cl)cc3)CC2c2cn(-c3ccccc3)nc2-c2ccc(Cl)c(Cl)c2)cc1 (stereo not drawn) | 21 mm
Clc1ccc(C2=NNC(c3cn(-c4ccccc4)nc3-c3ccc(Cl)c(Cl)c3)C2)cc1 (stereo not drawn) | 15 mm
CC(=O)N1N=C(c2ccc(Cl)cc2)CC1c1cn(-c2ccccc2)nc1-c1ccc(Cl)c(Cl)c1 (stereo not drawn) | 19 mm
Clc1ccc(C2=NN(c3ccccc3)C(c3cn(-c4ccccc4)nc3-c3ccc(Cl)c(Cl)c3)C2)cc1 (stereo not drawn) | 28 mm

Here is another compound to look at.
Input: Returns the measured zone of inhibition at 1000 µg/mL for the input compound. Input: Cc1ccc(C2=NN(c3ccccc3)C(c3cn(-c4ccccc4)nc3-c3ccc(Cl)c(Cl)c3)C2)cc1 (stereo not drawn)
Output: 18 mm

====

Reported zone of inhibition at 1000 µg/mL by item:
- Tested on: Staphylococcus
- methodSummary: Antimicrobial activity against Staphylococcus citreus at 20 uL of 1 mg/ml by disc diffusion assay
- Format: functional
- recordedConditions: read-out: IZ
Value and unit, in that order.

CC(=O)N1N=C(c2ccc(Cl)cc2)CC1c1cn(-c2ccccc2)nc1-c1ccc(Cl)c(Cl)c1 (centres undefined) | 13 mm
Clc1ccc(C2=NN(c3ccccc3)C(c3cn(-c4ccccc4)nc3-c3ccc(Cl)c(Cl)c3)C2)cc1 (centres undefined) | 19 mm
Fc1ccc(C2=NN(c3ccccc3)C(c3cn(-c4ccccc4)nc3-c3ccc(Cl)c(Cl)c3)C2)cc1 (centres undefined) | 37 mm

// next item, zone of inhibition at 1000 µg/mL requested
Input: Any idea what its zone of inhibition at 1000 µg/mL is? The compound is O=[N+]([O-])c1ccc(N2N=C(c3ccc(F)cc3)CC2c2cn(-c3ccccc3)nc2-c2ccc(Cl)c(Cl)c2)cc1 (centres undefined)
Output: 21 mm
